Reference for the values: patent US20250270315A1

- test-system: Human SIRPα v1 (antigen of the Octet and Biacore affinity measurements) (human, UniProt P78324 31-370, limits assumed)
- Sequence (P78324 31-370 limits assumed): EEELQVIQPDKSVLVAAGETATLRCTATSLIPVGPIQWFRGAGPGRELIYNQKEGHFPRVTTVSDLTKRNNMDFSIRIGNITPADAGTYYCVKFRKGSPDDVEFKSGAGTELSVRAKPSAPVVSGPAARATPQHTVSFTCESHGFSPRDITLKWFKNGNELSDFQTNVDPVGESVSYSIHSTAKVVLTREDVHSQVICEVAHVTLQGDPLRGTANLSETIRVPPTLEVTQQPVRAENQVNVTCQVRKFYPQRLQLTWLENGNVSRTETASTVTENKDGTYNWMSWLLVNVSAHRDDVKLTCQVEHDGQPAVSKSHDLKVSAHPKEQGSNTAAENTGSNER
- assay-notes: BLI (Octet), 1:1 binding model
Label False if kon falls below 600000 M⁻¹ s⁻¹; label True in every other case.

binder="hu1H9G4 (antibody, V domains shown) VH: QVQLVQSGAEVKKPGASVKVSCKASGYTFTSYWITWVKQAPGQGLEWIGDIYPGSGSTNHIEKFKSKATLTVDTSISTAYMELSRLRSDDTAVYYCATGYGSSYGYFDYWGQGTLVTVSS VL: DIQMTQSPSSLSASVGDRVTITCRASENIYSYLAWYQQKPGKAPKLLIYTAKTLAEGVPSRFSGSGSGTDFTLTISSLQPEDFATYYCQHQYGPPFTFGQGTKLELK" category_label=True
binder="025c (antibody, V domains shown, also called chimeric antibody 025c; parental antibody of 025c) VH: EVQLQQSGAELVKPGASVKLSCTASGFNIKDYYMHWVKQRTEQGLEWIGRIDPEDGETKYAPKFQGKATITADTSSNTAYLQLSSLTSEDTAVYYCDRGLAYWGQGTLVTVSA VL: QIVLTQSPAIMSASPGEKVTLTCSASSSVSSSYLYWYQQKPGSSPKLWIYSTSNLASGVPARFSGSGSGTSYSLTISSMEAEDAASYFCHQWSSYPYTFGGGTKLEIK" category_label=True
binder="071c (antibody, V domains shown, also called chimeric antibody 071c) VH: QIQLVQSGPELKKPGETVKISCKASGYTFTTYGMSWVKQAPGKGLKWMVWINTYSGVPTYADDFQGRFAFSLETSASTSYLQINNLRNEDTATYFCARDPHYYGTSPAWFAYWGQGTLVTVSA VL: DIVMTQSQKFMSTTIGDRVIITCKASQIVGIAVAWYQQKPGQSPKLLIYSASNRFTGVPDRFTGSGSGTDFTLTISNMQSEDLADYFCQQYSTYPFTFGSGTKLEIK" category_label=False
binder="073c (antibody, V domains shown, also called chimeric antibody 073c) VH: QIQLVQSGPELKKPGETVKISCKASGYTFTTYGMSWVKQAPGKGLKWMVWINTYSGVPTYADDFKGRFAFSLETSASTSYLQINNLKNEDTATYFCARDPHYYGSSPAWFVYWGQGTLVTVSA VL: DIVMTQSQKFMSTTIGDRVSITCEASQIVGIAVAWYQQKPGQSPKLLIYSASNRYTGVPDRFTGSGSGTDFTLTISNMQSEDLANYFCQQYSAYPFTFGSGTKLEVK" category_label=False
